# Species on record: Rattus norvegicus
# test: Inhibition of rat liver mitochondrial ATPase assessed as specific activity at 0.42 mM relative to control
# Parameters: scale not given: the % may be the effect or the level left
Activity values, listed per item
Your answer is read as %, so omit the unit and give the number.

compound: O=c1c(O)c(-c2ccc(O)cc2O)oc2cc(O)cc(O)c12
reading: 13.3

Look up Activity: O=c1cc(-c2ccccc2)oc2cccc(O)c12 [5-HYDROXYFLAVONE]
98.9

Look up Activity: `COc1ccccc1-c1cc(=O)c2c(OC)cccc2o1`
77.3
